- SUBJECT OF TEST: GluN1/2B NMDA receptor (GluN1a + GluN2B) (Rattus norvegicus, UniProt P35439+Q00960, P35439:E781A)
- Construct: cRNAs 1:1-3 in Xenopus oocytes; heterotetramer
- Sequence (Q00960 27-1482, other chains not shown): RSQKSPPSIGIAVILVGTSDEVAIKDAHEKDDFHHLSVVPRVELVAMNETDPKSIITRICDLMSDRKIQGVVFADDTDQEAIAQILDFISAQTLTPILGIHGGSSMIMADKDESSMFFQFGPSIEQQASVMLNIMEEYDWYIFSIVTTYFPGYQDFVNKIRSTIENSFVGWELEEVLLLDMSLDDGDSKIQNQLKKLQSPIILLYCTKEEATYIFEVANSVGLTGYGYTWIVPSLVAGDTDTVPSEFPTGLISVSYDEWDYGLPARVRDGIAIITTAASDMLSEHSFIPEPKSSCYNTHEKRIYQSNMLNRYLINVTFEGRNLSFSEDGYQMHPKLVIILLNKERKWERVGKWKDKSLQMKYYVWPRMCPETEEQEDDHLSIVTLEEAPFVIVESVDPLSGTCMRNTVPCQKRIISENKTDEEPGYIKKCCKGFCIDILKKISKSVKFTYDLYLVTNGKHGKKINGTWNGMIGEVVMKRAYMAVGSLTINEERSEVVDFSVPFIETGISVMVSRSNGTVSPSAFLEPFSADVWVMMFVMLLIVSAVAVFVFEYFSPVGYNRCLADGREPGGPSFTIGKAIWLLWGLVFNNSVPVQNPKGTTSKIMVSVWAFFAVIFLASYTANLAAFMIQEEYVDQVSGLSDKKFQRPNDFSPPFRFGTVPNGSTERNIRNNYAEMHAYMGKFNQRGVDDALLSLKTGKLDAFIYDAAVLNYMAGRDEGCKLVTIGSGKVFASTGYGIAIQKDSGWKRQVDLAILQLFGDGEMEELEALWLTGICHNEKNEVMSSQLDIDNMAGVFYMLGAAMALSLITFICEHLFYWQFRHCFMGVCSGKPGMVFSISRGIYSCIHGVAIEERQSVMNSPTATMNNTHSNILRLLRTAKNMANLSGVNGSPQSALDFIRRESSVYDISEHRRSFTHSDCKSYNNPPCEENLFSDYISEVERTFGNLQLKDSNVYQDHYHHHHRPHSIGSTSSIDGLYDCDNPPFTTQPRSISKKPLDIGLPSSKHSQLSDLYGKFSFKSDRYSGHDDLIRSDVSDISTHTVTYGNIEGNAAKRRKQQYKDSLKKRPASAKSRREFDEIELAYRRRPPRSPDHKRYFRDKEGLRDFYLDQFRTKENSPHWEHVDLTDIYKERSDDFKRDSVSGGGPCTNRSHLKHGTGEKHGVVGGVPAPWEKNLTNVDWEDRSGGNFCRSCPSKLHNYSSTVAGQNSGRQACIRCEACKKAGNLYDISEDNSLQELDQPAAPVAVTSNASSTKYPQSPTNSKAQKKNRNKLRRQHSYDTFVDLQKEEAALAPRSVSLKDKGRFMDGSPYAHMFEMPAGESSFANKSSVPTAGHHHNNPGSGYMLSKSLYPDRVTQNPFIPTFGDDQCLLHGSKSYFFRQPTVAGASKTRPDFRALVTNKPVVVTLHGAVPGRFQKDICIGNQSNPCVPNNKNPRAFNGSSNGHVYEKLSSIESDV
- ASSAY PROCEDURE: two-electrode voltage clamp, Xenopus oocytes
- SETUP CONDITIONS: read-out: EC50 or IC50
PARAMETER: IC50 (nM)

MOLECULE	PARAMETER	VAL
O=C(O)c1cc(O)c2c(Cl)cc(Cl)cc2n1 [5,7-DCKA]	IC50	610
